PROCEDURE TEXT: qHTS Assay for Spectroscopic Profiling in Rhodamine Spectral Region
TEST SETTINGS: Rhodamine-region fluorescence, 547/598 nm, Tris buffer
Among all 59,000 compounds or so, about 30 (0.05%) were called active. This is one part of a sample in which actives are shown more often than they occur.
PARAMETER: max dye-equivalent concentration

# count of solved cases: 6
| COMPOUND | max dye-equivalent concentration |
| --- | --- |
| COc1ccc(C(CNC(=O)c2cccnc2SC)N2CCOCC2)cc1 (stereo not given) | inactive |
| COc1ccc2c(c1)CCc1c(C(=O)N3CCCC3)noc1-2 | inactive |
| Cc1cccc(OCc2nnc(SCc3nc4cc(C(F)(F)F)ccc4c(=O)[nH]3)o2)c1 | inactive |
| COc1ccc2[nH]c3c(=O)n(Cc4ccco4)cnc3c2c1 | inactive |
| C[C@H](NC(=O)OC(C)(C)C)c1nnc(SCC(=O)Nc2ccc(Br)cc2)o1 | inactive |
| O=C1OC(NC(=O)c2ccccc2)C(N2CCOCC2)=C1Cl (stereo not given) | inactive |

Please supply max dye-equivalent concentration for each of the following items, keeping them in order.
1. CCCC1CC(C)(C(=O)Cn2[nH]c(=O)ccc2=O)OC1=O (stereo not given)
2. Cc1ccc(C)c(S(=O)(=O)N2CC(=O)Nc3ccccc32)c1

Result:
["inactive", "inactive"]

Please supply max dye-equivalent concentration for each of the following items, keeping them in order.
1. CCCCc1nccn1CCn1ccnc1CCCC
2. CC(C)C[C@H](NC(=O)Nc1cccc(C(F)(F)F)c1)C(=O)O

Result:
["inactive", "inactive"]

====

PROCEDURE TEXT: qHTS Assay for Spectroscopic Profiling in Rhodamine Spectral Region
TEST SETTINGS: Rhodamine-region fluorescence, 547/598 nm, Tris buffer
Hit rate of the full screen: of about 59,000 compounds, about 30 (0.05%) were called active. Many of the other results were omitted from the sample, so actives are more common in it than they were.
PARAMETER: max dye-equivalent concentration

# count of solved cases: 4
| MOLECULE | max dye-equivalent concentration |
| --- | --- |
| FC(F)(F)c1ccccc1-c1cc(NCc2ccccc2)ncn1 | inactive |
| CCOc1ccc(CN(Cc2ccco2)C(c2cccs2)c2nnnn2C(C)(C)C)cc1 (stereo unspecified) | inactive |
| O=C(COC(=O)c1ccc2c(c1)OCCO2)NCc1ccccc1 | inactive |
| CC1CC(c2ccccc2)n2nc(NC(=O)c3cccs3)nc2N1 (stereo unspecified) | inactive |

Please supply max dye-equivalent concentration for each of the following items, keeping them in order.
1. Cc1ccc(CC2CC(=O)N(c3ccc4c(c3)OCCO4)C2=O)cc1 (stereo unspecified)
2. O=C(OCC(O)C(O)COC(=O)c1ccccc1)c1ccccc1 (stereo unspecified)
3. CCOc1ccc2c(c1)cc(CN(C(=O)CC)C1CCCCC1)c1nnnn12

Result:
1: inactive; 2: inactive; 3: inactive

Please supply max dye-equivalent concentration for each of the following items, keeping them in order.
1. CN(CC(=O)NC1CCCCC1)S(=O)(=O)c1ccc(Br)s1
2. O=C(O)CCC(=O)Nc1ccc(N2CCOCC2)cc1
3. Cc1cc(=O)n2nc(N3CCCC3C(=O)NCCCN3CC(C)CC(C)C3)sc2n1 (stereo unspecified)
4. Cn1c(SCC(=O)Nc2cccc(O)c2)nnc1-c1ccc(S(=O)(=O)N2CCOCC2)cc1

Result:
1: inactive; 2: inactive; 3: inactive; 4: inactive
